tgt: Set7/9 (Homo sapiens)
Construct: purchased BPS BioScience (via AMSBio, UK)
Sequence (Q8WTS6 1-366): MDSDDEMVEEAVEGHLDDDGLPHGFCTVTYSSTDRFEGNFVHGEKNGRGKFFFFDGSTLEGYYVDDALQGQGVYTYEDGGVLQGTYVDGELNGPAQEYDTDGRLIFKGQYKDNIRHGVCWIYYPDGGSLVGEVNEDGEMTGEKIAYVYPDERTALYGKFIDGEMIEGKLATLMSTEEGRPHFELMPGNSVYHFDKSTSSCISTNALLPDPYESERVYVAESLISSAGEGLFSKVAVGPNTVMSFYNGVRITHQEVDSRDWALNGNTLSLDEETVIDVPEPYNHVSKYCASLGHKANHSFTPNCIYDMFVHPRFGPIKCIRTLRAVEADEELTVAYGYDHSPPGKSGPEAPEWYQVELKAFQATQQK
assay method text: Set7/9 FLT protease protection assay
Assay type: biochemical
condition set: peptide 13 (1 μM), Set7/9 50 nM, SAM 500 nM, 2 h
measured endpoint: IC50 (µM)
Provide only the numeric value, understood in µM.

Ask: Requested read-out: IC50. Entry: Nc1ncnc2c1ncn2[C@@H]1O[C@H](CSCC[C@H](N)C(=O)O)[C@@H](O)[C@H]1O [SAH, S-adenosylhomocysteine, reference compound]
Result: 37
